# TEST_SUMMARY: NFkB reporter suppression in cystic fibrosis bronchial cells – cell-based, uHTS hits, panel, cytotoxicity readout, dose response (AID 624344)
# CONDITION: CF bronchial epithelial cells, PAF-induced NFkB reporter inhibition; with PAF, mean of runs
Calls of active or inactive are those of the source. The rule behind the calls is not given here.
Outcome codes: TRUE for active, FALSE for inactive

- c1ccc(-c2nc3nonc3nc2-c2ccccc2)cc1: TRUE
- CC(=O)Nc1ccc(Nc2nc(-c3sc(NC(C)=O)nc3C)cs2)cc1: TRUE
- C=C(C)[C@@H]1CC[C@]2(C(=O)O)CC[C@]3(C)[C@H](CC[C@@H]4[C@@]5(C)CC[C@H](O)C(C)(C)[C@@H]5CC[C@]43C)[C@@H]12: FALSE
- COc1cc2cncc(Cc3ccc(Cl)cc3)c2cc1OC: TRUE
- O=C(c1ccccc1)C1OC1C(=O)c1ccccc1 (stereo not given): TRUE

----------
# key: entry, value: pIC50
# TEST_SUMMARY: NFkB reporter suppression in cystic fibrosis bronchial cells – cell-based, uHTS hits, panel, cytotoxicity readout, dose response (AID 624344)
# CONDITION: CF bronchial epithelial cells, PAF-induced NFkB reporter inhibition; with PAF, mean of runs
pIC50: −log10 of the molar value.
ENDPOINT_NAME: pIC50

* CCCNC(=O)COC(=O)c1ccccc1C(=O)c1ccc(Cl)c([N+](=O)[O-])c1 | 5.74
* Cc1ccc(C(=O)Nc2cccc(C(F)(F)F)c2)cc1NC(=O)c1cnnc2ccccc12 | 5.19
* CC(=O)Nc1ccc(NC(=O)COC(=O)c2c3c(nc4ccccc24)CCN(Cc2ccccc2)C3)cc1 | 5.28
* COC(=O)c1ccc(NC(=O)c2ccccc2NS(=O)(=O)c2ccccc2)cc1 | 5.34
* Cc1cc(N2CCOCC2)c2c(N)c(Br)cc(C)c2n1 | 6.14
* COc1ccc(-c2cn[nH]c2-c2ccc(OCc3ccccc3)cc2O)cc1 | 5.43

----------
# TEST_SUMMARY: NFkB reporter suppression in cystic fibrosis bronchial cells – cell-based, uHTS hits, panel, cytotoxicity readout, dose response (AID 624344)
# CONDITION: CF bronchial epithelial cells, PAF-induced NFkB reporter inhibition; with PAF, mean of runs
Activity calls are given as the source filed them. No rule for the calls is given here.
Outcome codes: yes (1) for active, no (0) for inactive

• Cc1cccc(N(Cc2cc(=O)[nH]c3ccccc23)C(=O)CCl)c1 = yes (1)
• CCCCCOC(=O)c1[nH]c2c(c1C)C(=O)CC(c1ccco1)C2 (configuration not stated) = yes (1)
• COC(=O)N1C(=O)[C@@](c2ccccc2)(C(C)C)N1C(=O)OC = yes (1)
• CN(C)c1ccc(Nc2ncnc3ccc(Br)cc23)cc1 = yes (1)
• O=C(/C=C/c1cccc([N+](=O)[O-])c1)NC(=S)Nc1ccc(CN2CCOCC2)cc1 = yes (1)
• Cc1ccc(C(=O)c2cc([N+](=O)[O-])ccc2N2CCCCC2)c(C)c1 = yes (1)
• CC(=O)Oc1ccc(N(C(C)=O)S(=O)(=O)c2ccc(Cl)cc2)c2ccccc12 = yes (1)
• Clc1ccc(-c2csc3ncnc(N4CCc5ccccc5C4)c23)cc1 = yes (1)
• CNc1ccc2ncc(-c3ccc(OC)c(OC)c3)n2n1 = yes (1)
• COc1ccc(COC(=O)C2=C(C)NC(=O)NC2c2ccc(OC)cc2)cc1 (configuration not stated) = yes (1)
• CC(=O)c1c(C)n(-c2ccc(C)cc2C)c2ccc(O)cc12 = yes (1)
• Cc1cnc(C=O)c2cccc([N+](=O)[O-])c12 = yes (1)
• Cc1cnc(NC(=O)CCCc2nc3ccccc3s2)s1 = yes (1)
• CCCn1c(-c2nonc2N)nc2ccccc21 = yes (1)
• Cc1cccc(NS(=O)(=O)c2ccc(-c3cnc(C4CC4)o3)cc2)c1C = yes (1)
• COc1ccc(N(CCCN2C(=O)c3cccc4cccc(c34)C2=O)C(=O)c2ccncc2)cc1 = no (0)
• COc1ccc(-c2cc(=O)oc3c(C)c(O)ccc23)cc1 = yes (1)

----------
# TEST_SUMMARY: NFkB reporter suppression in cystic fibrosis bronchial cells – cell-based, uHTS hits, panel, cytotoxicity readout, dose response (AID 624344)
# CONDITION: CF bronchial epithelial cells, PAF-induced NFkB reporter inhibition; with PAF, mean of runs
# key: entry, value: IC50
ENDPOINT_NAME: IC50

- O=C(COc1ccc(Cl)cc1)Nc1ncc([N+](=O)[O-])s1: 1020 nM
- COC(=O)c1c(C)n(-c2ccc(OC)cc2)c2ccc(O)cc12: 2370 nM
- COc1ccc2c(c1OC)C(=O)OC2Nc1nc(-c2ccccc2)cs1 (stereo unspecified): 660 nM
- COc1ccccc1-c1cc(NC=O)c2ncc(-c3ccc(F)cc3)n2c1: 4080 nM
- CN(C)c1ccc(C(C(=O)NC2CCCCC2)N(Cc2ccco2)C(=O)c2snc(C(N)=O)c2N)cc1 (stereo unspecified): 4040 nM
- O=C1OC(Nc2nc(-c3ccc(F)cc3)cs2)c2ccccc21 (stereo unspecified): 2310 nM
